Entry source: PubChem BioAssay (NCI)

Tested on: K-562 leukemia
TEST: NCI tumour cell line growth inhibition, 48 h
MEASUREMENT_KIND: TGI

>  <COMPOUND>
O=C1C=CC(=O)c2c(O)c(NCCc3ccc(O)cc3)c(Cl)c(O)c21

>  <MEASUREMENT_KIND>
TGI

>  <ASSAY_RESULT>
> 10 µM

$$$$
>  <COMPOUND>
O=C(CC1=NCCN1)c1ccccc1

>  <MEASUREMENT_KIND>
TGI

>  <ASSAY_RESULT>
> 750 µM

$$$$
>  <COMPOUND>
CSC(C1c2ccccc2N(c2ccc(C)cc2)C2=NC(=O)N(C)C(=O)C21Cl)S(=O)(=O)c1ccc(C)cc1 (stereo not given)

>  <MEASUREMENT_KIND>
TGI

>  <ASSAY_RESULT>
53.9 µM

$$$$
>  <COMPOUND>
COc1ccc(-c2c(C#N)c(N)nc3c2CCS(=O)(=O)c2ccccc2-3)cc1

>  <MEASUREMENT_KIND>
TGI

>  <ASSAY_RESULT>
> 100 µM

$$$$
>  <COMPOUND>
COc1ccc(Nc2nc3c([nH]2)c(=O)n(C)c(=O)n3C)cc1

>  <MEASUREMENT_KIND>
TGI

>  <ASSAY_RESULT>
> 10 µM

$$$$
>  <COMPOUND>
CC/C(=C(/c1ccc(O)cc1)c1ccc(OCCNC)cc1)c1ccccc1

>  <MEASUREMENT_KIND>
TGI

>  <ASSAY_RESULT>
4.41 µM

$$$$
>  <COMPOUND>
Brc1ccc2c(-c3csc(-c4c[nH]c5ccc(Br)cc45)n3)c[nH]c2c1

>  <MEASUREMENT_KIND>
TGI

>  <ASSAY_RESULT>
> 22.2 µM

$$$$
>  <COMPOUND>
COC(=O)C1CC2(c3ccccc3)C(=O)c3ccccc3N2O1 (stereo not given)

>  <MEASUREMENT_KIND>
TGI

>  <ASSAY_RESULT>
> 100 µM

$$$$

Ask: Give recorded TGI with K-562 leukemia for the following compound: `COc1cc(/C=C\C(=O)O)ccc1OCc1ccccc1`
Result: > 100 µM

Ask: // same read-out, input: `CCC[CH2][Sn]1([CH2]CCC)[O]Cc2nc(C)ccc2[O]1`
Result: 10.5 µM

* * *

Test system: CCRF-CEM leukemia
TEST: NCI tumour cell line growth inhibition, 48 h; in the data active means GI50 below about 0.43 µM; inactive means the rest
Hi there, use one of these labels in your reply, thanks! active, inactive

Illustrative cases are given below, each with its answer.
>  <STRUCTURE>
COc1ccc(-c2cnnc3c(-c4cccc(C(F)(F)F)c4)cnn23)cc1

>  <TEST_SYSTEM>
CCRF-CEM leukemia

>  <LABEL_CLASS>
inactive

$$$$
>  <STRUCTURE>
Nc1nc(Cl)c2ncn(Cc3ccc(C45CC6CC(CC(C6)C4)C5)c(O)c3)c2n1

>  <TEST_SYSTEM>
CCRF-CEM leukemia

>  <LABEL_CLASS>
inactive

$$$$
>  <STRUCTURE>
CCCn1cnc2c(SCc3ccccc3Cl)nc(N)nc21

>  <TEST_SYSTEM>
CCRF-CEM leukemia

>  <LABEL_CLASS>
inactive

$$$$
>  <STRUCTURE>
O=C(N/N=C/c1ccccc1O)c1ccccc1Nc1ccnc(C(F)(F)F)c1

>  <TEST_SYSTEM>
CCRF-CEM leukemia

>  <LABEL_CLASS>
active

$$$$
>  <STRUCTURE>
[Cl-].[Dy+3].[O-]/N=C(\c1ccccc1)c1ccccn1.[O-]/N=C(\c1ccccc1)c1ccccn1.[O-]/N=C(\c1ccccc1)c1ccccn1

>  <TEST_SYSTEM>
CCRF-CEM leukemia

>  <LABEL_CLASS>
inactive

$$$$

As a next step, examine the molecule that follows.
Ask: What did the test return for `FC(F)(F)c1cccc(Nc2nccc(-c3cnn4nc(-c5ccccc5)ccc34)n2)c1` ?
Result: inactive
